# System: SK-MEL-28
# test_method_notes: NCI tumour cell line growth inhibition, 48 h
Activity calls are given as the source filed them. Rule as the data show it: active = GI50 up to about 1.1 µM and inactive = higher.
assay_endpoint: GI50

{"molecule": "CC(=O)N(C(C)=O)n1c(Cc2ccc(Cl)cc2)nn(C(C)=O)c1=O", "result": "> 100 µM (inactive)"}
{"molecule": "Nc1ccc2ccc(N3CCNCC3)nc2n1", "result": "> 100 µM (inactive)"}
{"molecule": "COc1ccc(C/C(=N/O)C(=O)NCCc2cc(Br)c(OCCCN(C)C)c(Br)c2)cc1Br", "result": "17.7 µM (inactive)"}
{"molecule": "C[C@H]1S[C@@H](c2ccc(Cl)cc2Cl)N(NC(=O)c2ccncc2)C1=O", "result": "45.2 µM (inactive)"}
{"molecule": "COC(=O)C1(C(=O)OC)CC2=C(S(=O)(=O)c3ccccc3)C[C@H](S(=O)(=O)c3ccccc3)[C@H]2C1", "result": "> 100 µM (inactive)"}
{"molecule": "CC1(C2(C)OC(=O)c3ccccc32)OC(=O)c2ccccc21 (configuration not stated)", "result": "> 100 µM (inactive)"}
{"molecule": "O=[N+]([O-])c1cc2oc(CSc3ccccc3)nc2cc1Cl", "result": "35.2 µM (inactive)"}
{"molecule": "CC1=C(O)C(=O)C[C@]2(C)[C@H]3CC=C4[C@@H]5CC(C)(C)CC[C@@H]5C(=O)[C@H](O)[C@@]4(C)[C@]3(C)CC[C@@H]12", "result": "> 50 µM (inactive)"}
{"molecule": "Cc1cc(C)c(C(=O)C(C)C(c2ccccc2)c2ccc(Cl)cc2)c(C)c1 (configuration not stated)", "result": "> 100 µM (inactive)"}
{"molecule": "Cn1c2ccccc2c2c(-c3ccccc3)[n+]3ccccc3nc21", "result": "20.5 µM (inactive)"}
{"molecule": "CCOC(=O)C(=CN1CCNC1=S)C(=O)OCC", "result": "> 100 µM (inactive)"}
{"molecule": "Cc1c(N/C=C(\\C#N)C(=O)c2ccc(Cl)cc2)c(=O)n(-c2ccccc2)n1C", "result": "> 100 µM (inactive)"}

====

# Test system: UO-31
# test_method_notes: NCI tumour cell line growth inhibition, 48 h
Calls of active or inactive are those of the source. Rule as the data show it: active = GI50 up to about 1.1 µM and inactive = higher.
Classes used: 1.0 for active, 0.0 for inactive

{"compound": "O=C1CCC2(CCO1)OCCO2", "classification": 0.0}
{"compound": "O=C(/C=C/c1ccc(Cl)c(Cl)c1)c1ccc2ccccc2c1", "classification": 0.0}
{"compound": "Cn1c(=O)c(C#N)c(O)c2cc3ccccc3nc21", "classification": 0.0}
{"compound": "COC(=O)C1(C#N)C(C)(C)N=C(c2ccccc2)C12CCCCC2 (centres undefined)", "classification": 0.0}
{"compound": "N#Cc1ccc(Cc2ccccn2)cc1Cl", "classification": 0.0}
{"compound": "CN1CCC23c4c5ccc(Oc6nnnn6-c6ccccc6)c4OC2c2[nH]c4ccccc4c2CC3(O)C1C5 (centres undefined)", "classification": 0.0}
{"compound": "COc1cccc2c1C(=O)C=CC2=O", "classification": 0.0}
{"compound": "Cc1c(C(=O)O)sc2nc[nH]c(=O)c12", "classification": 0.0}
{"compound": "O=C(CCCCCCCCC(=O)NN1C(=O)/C(=C\\c2ccc(O)c(O)c2)SC1c1ccc(Cl)cc1)NN1C(=O)/C(=C\\c2ccc(O)c(O)c2)SC1c1ccc(Cl)cc1 (centres undefined)", "classification": 0.0}
{"compound": "CC(=O)OC1CC2CCN3C(=O)c4cc5c(cc4[C@H](C1OC(C)=O)C23)OCO5 (some centres undefined)", "classification": 0.0}
{"compound": "CN1C(=O)[C@H](c2c[nH]c3ccccc23)[C@H](c2c[nH]c3ccccc23)C1=O", "classification": 0.0}
{"compound": "CCOC(=O)NC/C=C/COC1CCCCO1 (centres undefined)", "classification": 0.0}
{"compound": "CC(C)(C)NCCC(O)c1cc(C(F)(F)F)nc2c(C(F)(F)F)cccc12 (centres undefined)", "classification": 1.0}
{"compound": "COc1ccc(-c2nc(SCC(=O)N/N=C/c3ccc(N(C)C)cc3)[nH]c2-c2ccc(OC)cc2)cc1", "classification": 0.0}
{"compound": "COC(=O)C(F)C(Br)C(=O)OC (centres undefined)", "classification": 0.0}
{"compound": "CC(NC(=O)C1(N)CCCC1)C(=O)O (centres undefined)", "classification": 0.0}
{"compound": "COC(=O)C1C=CCON2CCc3c(n(S(=O)(=O)c4ccccc4)c4ccccc34)C12 (centres undefined)", "classification": 0.0}
{"compound": "CCOC(=O)/C=C/CC(C)(C)CCOC(C)=O", "classification": 0.0}
{"compound": "CN1C(=O)C(C(=O)Nc2ccccn2)C2C[C@@]1(C)Oc1ccccc12 (some centres undefined)", "classification": 0.0}
{"compound": "O=C(CC1(O)C(=O)Nc2c(Cl)ccc(Cl)c21)c1ccco1 (centres undefined)", "classification": 0.0}
{"compound": "Cc1cc([N+](=O)[O-])c(C)c2c1[nH]c1ccc(O)cc12", "classification": 0.0}
{"compound": "CCCNC(=S)N/C=C1\\C(=O)Nc2ccccc2C1=O", "classification": 0.0}
{"compound": "COc1ccc(/C=C2\\C(=O)Nc3ccccc32)cc1OC", "classification": 0.0}
{"compound": "CC(C)[C@H]1C(=O)O[B@-](F)(c2ccccc2)/[N+]1=C\\N(C)C", "classification": 0.0}

====

# Test system: CCRF-CEM
# test_method_notes: NCI tumour cell line growth inhibition, 48 h
Activity calls are given as the source filed them. Rule as the data show it: active = GI50 up to about 1.1 µM and inactive = higher.
Outcome codes: active, inactive

{"compound": "O=C1[C@@H]2C(c3ccccc3Br)=NO[C@@H]2C(=O)N1c1ccc(Cc2ccc(N3C(=O)[C@H]4C(c5ccccc5Br)=NO[C@H]4C3=O)cc2)cc1", "classification": "inactive"}
{"compound": "CC(C)(C)NCCC(O)c1cc(C(F)(F)F)nc2c(C(F)(F)F)cccc12 (stereo not drawn)", "classification": "inactive"}
{"compound": "CN(C)C(=O)N1N[C@H](c2ccccc2)[C@@H]1c1ccccc1", "classification": "inactive"}
{"compound": "Cc1ccc(C(=O)O/N=C2/CCCC/C2=C\\c2ccccc2)cc1", "classification": "inactive"}
{"compound": "C[N+](C)(C)CCc1ccccc1", "classification": "inactive"}
{"compound": "COc1ccc(-c2nc(SCC(=O)N/N=C/c3ccc(N(C)C)cc3)[nH]c2-c2ccc(OC)cc2)cc1", "classification": "inactive"}
{"compound": "CC[N+](C)(CC)CCN1C(=O)c2ccccc2S1(=O)=O", "classification": "inactive"}
{"compound": "Cn1c2ccccc2c2cc(N3CCCC3)c3c(c21)C(=O)N(c1ccccc1)C3=O", "classification": "inactive"}
{"compound": "CCOC(=O)C1CCn2c(nc3c2c(=O)n(C)c(=O)n3C)S1 (stereo not drawn)", "classification": "inactive"}
{"compound": "COc1ccc2[nH]cc(CCNC(=O)[C@](O)(Cc3cn(C)c4ccccc34)[C@@]3(O)OCC(O)C3O)c2c1 (stereo partly drawn)", "classification": "inactive"}
{"compound": "COc1cc2cc(C(=O)N3CC(COS(C)(=O)=O)c4c3cc(N)c3ccccc43)[nH]c2c(OC)c1OC (stereo not drawn)", "classification": "active"}
{"compound": "Cc1ccc2c(=O)c(-c3nnc(NC4CCCCC4)s3)c[nH]c2n1", "classification": "inactive"}
{"compound": "COc1cc(C)cc2c1C(=O)C(Br)=CC2=O", "classification": "active"}
{"compound": "COc1cc(Cl)c(CC(=O)c2c[nH]c3ccccc23)cc1OC", "classification": "inactive"}
{"compound": "COC(=O)C(F)C(Br)C(=O)OC (stereo not drawn)", "classification": "active"}
{"compound": "N#C/C(C(=S)Nc1ccccc1)=C(/N)N1CCCC1", "classification": "inactive"}
{"compound": "CC(=O)N1N(c2ccc([N+](=O)[O-])cc2)C(=O)C1(C)C", "classification": "inactive"}
{"compound": "Cc1cccc(/N=C/C=C(\\Cl)c2ccc3ccccc3c2)c1", "classification": "inactive"}

====

# System: NCI-H522
# test_method_notes: NCI tumour cell line growth inhibition, 48 h
Calls of active or inactive are those of the source. Rule as the data show it: active = GI50 up to about 1.1 µM and inactive = higher.
Classes used: yes for active, no for inactive

{"molecule": "COC(=O)CC(C(C(=O)OC)C(=O)OC)N1C(=O)OCC1c1ccccc1 (centres undefined)", "classification": "no"}
{"molecule": "COc1ccc2oc(C(=O)N3CC(CCl)c4ccc(N)cc43)cc2c1 (centres undefined)", "classification": "yes"}
{"molecule": "NC(Cc1cc(Br)c(O)c(Br)c1)C(=O)O (centres undefined)", "classification": "no"}
{"molecule": "CCCCCCCCC/C=C1\\CCC(CN2CCOCC2)C1=O (centres undefined)", "classification": "no"}
{"molecule": "C=C1OC(c2ccccc2NC)=NC12CCCCC2", "classification": "no"}
{"molecule": "Cc1c2cc[n+](C)cc2c(C)c2c1[nH]c1ccc(O)c(OCC(F)(F)F)c12", "classification": "yes"}
{"molecule": "NNC(=O)CC(=O)Nc1ccccc1Cl", "classification": "no"}
{"molecule": "O=C(OCCOC(=O)c1ccc2c(c1)C1(SCCS1)c1ccccc1-2)c1ccc2c(c1)C1(SCCS1)c1ccccc1-2", "classification": "no"}
{"molecule": "CC1(C2(C)OC(=O)c3ccccc32)OC(=O)c2ccccc21 (centres undefined)", "classification": "no"}
{"molecule": "O=C1Nc2ccc(Cl)cc2/C1=C\\c1c(Cl)nc2sccn12", "classification": "no"}
{"molecule": "Cn1c2ccccc2c2c(-c3ccccc3)[n+]3ccccc3nc21", "classification": "no"}
{"molecule": "CN(CCN1C(=O)c2cc([N+](=O)[O-])cc3cc([N+](=O)[O-])cc(c23)C1=O)CCN1C(=O)c2cc([N+](=O)[O-])cc3cc([N+](=O)[O-])cc(c23)C1=O", "classification": "yes"}
{"molecule": "CC1CC(C[N+](=O)[O-])CC2(C1)OCCO2 (centres undefined)", "classification": "no"}
{"molecule": "CC(C)C(OC(=O)c1ccc(NCC2=CC(=O)C=CC2=O)cc1)C(C)C", "classification": "no"}
{"molecule": "O=[N+]([O-])c1ccc(Cl)c(C2CC(c3cccc4ccccc34)=Nc3ccccc3S2)c1 (centres undefined)", "classification": "no"}
{"molecule": "CC(=N\\c1ccncc1)/C(C)=N/c1ccncc1", "classification": "no"}
{"molecule": "O=C1c2scc(-c3ccc(Cl)cc3)c2-n2cccc21", "classification": "no"}
{"molecule": "CCOC(=O)C(=CN1CCNC1=S)C(=O)OCC", "classification": "no"}
{"molecule": "C=CCN1C(=O)/C(=C/c2ccccc2)NC1=S", "classification": "no"}
{"molecule": "CN(C)/N=N/c1ccccc1", "classification": "no"}
{"molecule": "CCCN(CCC)c1c([N+](=O)[O-])cc(C(=O)N(CCO)CCO)cc1[N+](=O)[O-]", "classification": "no"}
{"molecule": "COC(=O)c1cc2c(=O)n(C)c3ccccc3n2c1C(=O)OC", "classification": "no"}
{"molecule": "Cc1cn([C@@H]2O[C@H](CO)[C@@H](O)[C@@H]2O)c(=O)[nH]c1=O", "classification": "no"}
{"molecule": "O=C1[C@@H]2C3c4ccccc4C([C@@H]2C(=O)N1c1ccccc1)S3(=O)=O", "classification": "no"}
